The reported measurements were obtained from patent US4415566A.

Tested on: Proteus mirabilis Hamburgensis
Assay comment: Serial dilution test in the microtiter system (MIC), Prot. mirabilis
Assay type: cell-based
Conditions used: Table IV, Prot. mir. Hbg., 37° C., 18-20 hours, read-out: MIC
Reported endpoint: MIC
A complete answer gives the number and then names the unit.

Request: Entry under review: `Cn1nnnc1SCC1=C(C(=O)O)N2C(=O)[C@@H](NC(=O)[C@H](NC(=O)Nc3cnc(NCc4ccco4)nc3O)c3ccc(O)cc3)[C@H]2SC1` . Reported MIC?
Result: 0.12 mg/L

Request: Using the record for `Cn1nnnc1SCC1=C(C(=O)O)N2C(=O)[C@@H](NC(=O)[C@H](NC(=O)Nc3cnc(NCc4cccs4)nc3O)c3ccc(O)cc3)[C@H]2SC1` , report its MIC.
Result: 0.12 mg/L

Request: So what's the measured MIC for this one? `CC(=O)OCC1=C(C(=O)O)N2C(=O)[C@@H](NC(=O)[C@H](NC(=O)Nc3cnc(NCc4ccco4)nc3O)c3ccc(O)cc3)[C@H]2SC1`
Result: 0.25 mg/L

Request: Item under review: `Cc1ncc(CNc2ncc(NC(=O)N[C@@H](C(=O)N[C@@H]3C(=O)N4C(C(=O)O)=C(CSc5nnnn5C)CS[C@H]34)c3ccc(O)cc3)c(O)n2)cn1` . Reported MIC?
Result: 0.06 mg/L
